- assay_info: Plasma concentration in Balb/c mouse at 5 mg/kg, iv after 0.5 hrs by LC-MS analysis
- Assay type: ADME, organism-based

| compound | concentration at 0.5 h |
| --- | --- |
| CCCC(NC(=O)/C(C#N)=C/c1ccc2cccnc2n1)c1ccccc1 (stereo unspecified) | 301 to 397 ng/mL |

====

- assay_info: Plasma concentration in Balb/c mouse at 10 mg/kg, po after 2 hrs by LC-MS analysis
- Type: ADME, organism-based

| compound | concentration at 2 h |
| --- | --- |
| CCCC(NC(=O)/C(C#N)=C/c1ccc2cccnc2n1)c1ccccc1 (stereo unspecified) | 10.6 to 40.6 ng/mL |

====

- assay_info: Plasma concentration in Balb/c mouse at 30 mg/kg, po after 2 hrs by LC-MS analysis
- Assay type: ADME, organism-based

| compound | concentration at 2 h |
| --- | --- |
| CCCC(NC(=O)/C(C#N)=C/c1nc(Cl)ccc1Cl)c1ccc(OCCN2CCOCC2)cc1 (stereo unspecified) | 35.8 to 59 ng/mL |

====

- assay_info: Plasma concentration in Balb/c mouse at 10 mg/kg, po after 4 hrs by LC-MS analysis
- Assay type: ADME, organism-based
endpoint: concentration at 4 h

| molecule | result |
| --- | --- |
| CCCC(NC(=O)/C(C#N)=C/c1ccc2cccnc2n1)c1ccccc1 (stereo unspecified) | 13.3 to 30 ng/mL |

====

- assay_info: Plasma concentration in Balb/c mouse at 5 mg/kg, iv after 4 hrs by LC-MS analysis
- Format: ADME, organism-based

| molecule | concentration at 4 h |
| --- | --- |
| CCCC(NC(=O)/C(C#N)=C/c1ccc2cccnc2n1)c1ccccc1 (stereo unspecified) | 33.4 to 63.1 ng/mL |

====

- assay_info: AUClast in Balb/c mouse at 10 mg/kg, iv by LC-MS analysis
- Type: ADME, organism-based
- Design: dose 10 mg/kg, route intravenous, time 0 - last
- experimental_setup: in vivo

| molecule | AUC(0-t) |
| --- | --- |
| CCCC(NC(=O)/C(C#N)=C/c1nc(Cl)ccc1Cl)c1ccc(OCCN2CCOCC2)cc1 (stereo unspecified) | 3570 to 3730 ng·h/mL |

====

- assay_info: Plasma concentration in Balb/c mouse at 10 mg/kg, iv after 7 hrs by LC-MS analysis
- Assay type: ADME, organism-based

| molecule | concentration at 7 h |
| --- | --- |
| CCCC(NC(=O)/C(C#N)=C/c1nc(Cl)ccc1Cl)c1ccc(OCCN2CCOCC2)cc1 (stereo unspecified) | 38.6 to 208 ng/mL |

====

- assay_info: AUClast in Balb/c mouse at 5 mg/kg, iv by LC-MS analysis
- Type: ADME, organism-based
- Design: dose 5 mg/kg, time 0 - last, route intravenous
- experimental_setup: in vivo

| molecule | AUC(0-t) |
| --- | --- |
| CCCC(NC(=O)/C(C#N)=C/c1ccc2cccnc2n1)c1ccccc1 (stereo unspecified) | 692 to 993 ng·h/mL |

====

- assay_info: Plasma concentration in Balb/c mouse at 5 mg/kg, iv after 2 hrs by LC-MS analysis
- Assay type: ADME, organism-based

| compound | concentration at 2 h |
| --- | --- |
| CCCC(NC(=O)/C(C#N)=C/c1ccc2cccnc2n1)c1ccccc1 (stereo unspecified) | 79.6 to 99.1 ng/mL |
